Molecular target: UniProtKB P61769
Sequence (P61769 whole entry): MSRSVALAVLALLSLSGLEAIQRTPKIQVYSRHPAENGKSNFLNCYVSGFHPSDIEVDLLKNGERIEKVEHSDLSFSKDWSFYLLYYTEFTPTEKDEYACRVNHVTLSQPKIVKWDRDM
The molecules listed here are annotated with their IC50.
value.kind: IC50

[[record]]
molecule = "CN(C)[C@H]1C(=O)C(C(N)=O)C(=O)[C@@]2(O)C(=O)C3C(=O)c4c(O)cccc4[C@@](C)(O)C3C(O)C12 (stereo partly drawn) [4-epi-oxytetracycline]"
value_kind = "IC50"
readout_value = "49 µM"

[[record]]
molecule = "C=C1c2c(Cl)ccc(O)c2C(=O)C2C(=O)[C@]3(O)C(=O)C(C(N)=O)C(=O)[C@@H](N(C)C)[C@@H]3[C@@H](O)[C@H]12 (some centres undefined)"
value_kind = "IC50"
readout_value = "98 µM"

[[record]]
molecule = "Cc1c2c(c(O)c3c(O)ccc(Cl)c13)C(=O)[C@]1(O)C(=O)C(C(N)=O)C(=O)[C@@H](N(C)C)[C@@H]1C2 (some centres undefined) [Anhydrochlortetracycline]"
value_kind = "IC50"
readout_value = "136 µM"

[[record]]
molecule = "CN(C)[C@@H]1C(=O)C(C(N)=O)C(=O)[C@@]2(O)C(=O)C3C(=O)c4c(O)cccc4[C@@](C)(O)[C@H]3[C@H](O)[C@@H]12 (some centres undefined)"
value_kind = "IC50"
readout_value = "63 µM"

